System: OVCAR-5 ovarian
Assay: NCI-60 one-dose screen, 48 h
Conditions: 10 µM unless noted
This is part of a sample that, as a whole, favours compounds with a hit. Of some 83,000 tested, about 20% had one in any assay. Calls of active or inactive are those of the source. The calls were made as follows: active = growth percent below 10; inactive = the rest.
Mark one answer only. Choices: active, inactive

Query block: Identify the outcome logged in this assay for the compound shown: CC/C(=C/c1cc(OC)ccc1O)c1ccc2cc(OC)ccc2[o+]1
Result block: inactive

Query block: Thanks! And COc1ccc(NC(=O)Nc2ccc3c(ccn3C(=O)c3cccc(F)c3)c2)cc1 ?
Result block: inactive

Query block: Input N#Cc1cccc(CN2CCc3ncn(Cc4ccc(Cl)cc4)c(=O)c3C2)c1
Result block: inactive

Query block: Same question for CS(=O)(=O)c1ccc(-n2cc(/C=N/O)c(-c3ccccc3)n2)cc1 please.
Result block: inactive

Query block: One more compound: Nc1cc(-c2c[nH]c3ccc(Br)cc23)nc2cc(-c3c[nH]c4ccc(Br)cc34)nn12
Result block: active

Query block: Now consider COc1c(N2CC3CCCNC3C2)c(F)cc2c(=O)c(C(=O)N/N=C/c3ccc4c(c3)OCO4)cn(C3CC3)c12 (configuration not stated) and answer again.
Result block: inactive

Query block: Input CNC(=O)c1c(NC(=O)c2cccc(C(F)(F)F)c2F)sc2c1CCC(=O)C2
Result block: active

---

Tested on: OVCAR-5 ovarian
Experiment: NCI-60 one-dose screen, 48 h (100 = growth as untreated, 0 = no growth, -100 = all killed)
Details: 10 µM unless noted
About 83,000 compounds went through this panel and 20% of them were active in at least one assay; those are over-represented in the sample as a whole.
measured property: growth (%)
Report the figure in % without appending any unit label.

Query block: Item under review: CC(C)(C)n1nnnc1C(Nc1cccc2c1OCO2)c1cc2cccc3ccc4cccc1c4c32 (stereo not drawn) . Reported growth?
Result block: 91.9

Query block: Consider next the molecule Cc1cc(S(=O)(=O)N(C)C)cc(NCC(=O)NC(=O)NCC(C)C)c1C in the same way.
Result block: 87.8

Query block: O=S(=O)(NCCNc1nccc(-n2cnc3ccccc32)n1)c1ccc(Cl)cc1 ?
Result block: 91.7

---

System: NCI-H23 lung
Assay: NCI-60 one-dose screen, 48 h (100 = growth as untreated, 0 = no growth, -100 = all killed)
Details: 10 µM unless noted
About 83,000 compounds went through this panel and 20% of them were active in at least one assay; those are over-represented in the sample as a whole.
Record form. Attribute: growth. Fill in for each entry.
Just the number please, in %, no unit attached.

Query block: Returns the measured growth for the input molecule. Input: COc1cc(-c2ccc3ncnc(NCc4ccccc4)c3c2)cnc1OC
Result block: 67

Query block: Please answer likewise for NS(=O)(=O)c1ccc(Nc2nc(N/N=C/c3ccccn3)nc(Nc3ccccc3)n2)cc1
Result block: -7.29

Query block: Check CCCCCc1ccc(S(=O)(=O)Nc2cccc(-c3csc(NC(=O)CNCCN(C)C)n3)c2)cc1 too.
Result block: 94.6

Query block: // query: COc1cc2nc(Cl)nc(Nc3cccc(C4=Nc5c(N)nc(N)nc5NC(c5ccc(Br)cc5)C4)c3)c2cc1OC (stereo not given)
Result block: 91

Query block: # repeat for COc1cc(/C=C2\C(=O)Nc3ccccc32)ccc1OCc1ccc(F)cc1
Result block: 99

Query block: Thanks! And COc1cccc(O)c1/C=C(/C)c1ccc2c(OC)cccc2[o+]1 ?
Result block: 103

Query block: Please answer likewise for CCNC(=O)N1CCc2cc(OC)c(OCCc3ccc(OC)c(N)c3)cc2C1c1ccc(C)cc1C (stereo not given)
Result block: 20

Query block: What about this molecule? COc1cc2c(cc1OC)C(Sc1ccc(F)cc1)c1c(nc(N)c(C#N)c1N)O2 (stereo not given)
Result block: -83.1

Query block: Also check CN(C)CCNC(=O)c1ccc(-c2nc3ccc4[nH]ncc4c3c3c2CCC3)cc1
Result block: -15.2

Query block: One more molecule: COc1cc2c(cc1OC)C(Sc1ccc(C)cc1)c1c(nc(N)c(C#N)c1N)O2 (stereo not given)
Result block: -74.1

Query block: Also C=CCN(C)S(=O)(=O)/N=C1\NC(=O)NC1=C(Cl)Cl , if possible.
Result block: 37.5

Query block: Next: O=C(Nc1cccc(C(F)(F)F)c1)c1cc(-c2ccc(F)cc2F)ccc1O
Result block: -4.34

Query block: Can you handle CC(C)(C)c1ccc(-c2nnc(-c3nc4ccccc4nc3Cl)o2)cc1 next?
Result block: 90.9

Query block: Entry NC(N)=Nc1ccc(Oc2cccc(Nc3ccc(Cl)c(C(F)(F)F)c3)c2)cn1 please
Result block: -65.6

Query block: Cool, now NC(N)=Nc1ccc(Oc2cccc(NC(N)=Nc3ccc(Br)c(C(F)(F)F)c3)c2)cc1
Result block: 54.4

Query block: And O=C(O)c1ccc(-n2cc(CNc3cccc(Cl)c3)c(-c3ccc(F)cc3)n2)cc1 ?
Result block: 101

Query block: Okay, and NC(=O)c1c(NC(=O)c2ccc(F)cc2F)sc2c1CCC(=O)C2 ?
Result block: 18.5

Query block: Also need C#Cc1nc(C(=O)NCCC(=O)Nc2ccc(NC(=O)c3ccc(/C=C/C(=O)c4nccn4C)cc3)cc2)cs1 , thanks.
Result block: 33.1

Query block: Now try COc1cc(-c2nc3sccn3c2-c2ccnc(S(C)(=O)=O)n2)ccc1F .
Result block: 92.4

Query block: And what about the molecule COc1c(N2CC3CCCNC3C2)c(F)cc2c(=O)c(C(=O)N/N=C/c3ccc(F)cc3)cn(C3CC3)c12 (stereo not given) ?
Result block: 87.9

Query block: Quick one: CC[C@@H](CO)Nc1ccc2ncc(C#Cc3cncc(C(=O)Nc4ccc(CN5CCN(C)CC5)c(C(F)(F)F)c4)c3)n2n1
Result block: -71.5

Query block: # iterate: CC(C)(C)n1cc(-c2ccnc(NCCCNS(=O)(=O)c3cccc(F)c3)n2)c(-c2ccc(Cl)c(O)c2)n1
Result block: 100

Query block: Do the same for COCCNc1ccc2ncc(C#Cc3cncc(C(=O)Nc4ccc(CN5CCN(C)CC5)c(C(F)(F)F)c4)c3)n2n1 please
Result block: -49.6

Query block: Moving on to the next molecule: CC/C(=C/c1cc(OC)ccc1O)c1ccc2cc(OC)ccc2[o+]1
Result block: 64.2

Query block: Now the molecule O=C(CCn1c[n+](CC(=O)c2ccc(F)cc2)c2ccccc21)Nc1cccc2cccnc12
Result block: 83.4

---

System: OVCAR-3 ovarian
Assay: NCI-60 one-dose screen, 48 h (100 = growth as untreated, 0 = no growth, -100 = all killed)
Conditions: 10 µM unless noted
About 83,000 compounds went through this panel and 20% of them were active in at least one assay; those are over-represented in the sample as a whole. Calls of active or inactive are those of the source. How the source made its calls: active means growth percent below 10; inactive means the rest.
Answer each item with its documented growth.

Query block: Entry N#Cc1ccccc1Cn1c2nc(=N)c3ccccc3c-2nc2ccccc21 : reported growth = ?
Result block: -5.06% (active)

Query block: Entry to check: COc1ccc(-c2nc3cccc(O)c3c(=O)n2Cc2ccccc2)cc1COc1ccc(NC(C)=O)cc1
Result block: 66.9% [3 µM] (inactive)

Query block: What about O=C1CCCC2=C1C(c1c[nH]c3ccc(Br)cc13)Cc1cc(Br)ccc1N2 (centres undefined) ?
Result block: 27.2% (inactive)

Query block: Can you handle Nc1ncc(-c2ccc3ncnc(N4CCc5cc(F)c(Cl)cc54)c3c2)cn1 next?
Result block: 13.5% (inactive)

---

Tested on: RXF 393 renal
Assay: NCI-60 one-dose screen, 48 h
Settings: 10 µM unless noted
The panel holds about 83,000 compounds, 20% with a hit somewhere; the sample as a whole holds those more often. Activity calls are given as the source filed them. The calls were made as follows: active = growth percent below 10; inactive = the rest.
Hello, when you answer, please use one of the following outcomes: Y (active), N (inactive)

Query block: I would be grateful if you could indicate the recorded call for CN1CCN(c2ccc(/C=N/n3cnc4oc(-c5ccccc5)cc4c3=N)cc2)CC1 .
Result block: Y

Query block: Same question for Nc1nc(Nc2ccccc2SSc2ccccc2Nc2nc(N)nc(-c3ccccc3)n2)nc(-c2ccccc2)n1 please.
Result block: N

Query block: Another compound to check: Cc1ccc(-n2cc(/C=N/NC(=O)c3ccncc3)c(-c3ccc(S(C)(=O)=O)cc3)n2)cc1
Result block: N

Query block: Now the same for O=C(CN1CCN(c2cc(=O)n(-c3ccccc3)c3ccccc23)CC1)Nc1nc(-c2ccccc2)cs1
Result block: N

Query block: // repeat for COC(=O)c1ccc(NC2=C/C(=N/S(=O)(=O)c3ccc(C(=O)O)cc3)c3ccccc3C2=O)cc1 and report
Result block: Y

Query block: Do the same for CCNC(=O)N1CCc2cc(OC)c(OCCc3ccc(OC)nc3)cc2C1c1ccc(OC)cc1C (stereo not drawn) please
Result block: N

Query block: Now the same for Cc1ccc(S(=O)(=O)N(CC[C@@H]2C[C@H]2c2cc3ccccc3o2)S(=O)(=O)c2ccc(C)cc2)cc1
Result block: N

Query block: Similarly, CCc1cccc2c3c(sc12)C(c1ccc(Cl)cc1)C(C#N)=C(/N=C/c1ccc(Cl)cc1)O3 (stereo not drawn) ?
Result block: Y

Query block: Repeat with CCN1CCN(Cc2ccc(C(=O)Nc3ccc(C)c(Oc4ccc(-c5[nH]nc6ncnc(N)c56)cc4)c3)cc2C(F)(F)F)CC1
Result block: N

Query block: Try the compound COc1ccc(-c2nc(C(Cl)Cl)nc3cc(-c4ccccc4)nn23)cc1
Result block: Y

Query block: Record: COc1ccc(NCc2cn(-c3ccc(C(=O)O)cc3)nc2-c2cc(C(F)(F)F)cc(C(F)(F)F)c2)cc1
Result block: N

Query block: Also O=C1[C@H]2Cc3c([nH]c4ccccc34)[C@@H](c3ccc(Br)cc3)N2C(=O)CN1C1CCN(CC2CCCCC2)CC1 , if possible.
Result block: Y

Query block: Now give it for COc1cc2oc(-c3cccc(C(=O)N[C@@H](CC(C)C)C(=O)OC(C)(C)C)c3)cc(=O)c2c(OC)c1OC too.
Result block: N

Query block: How about this compound: C#CCn1cccc1CNc1ccc(OC)cc1
Result block: Y

Query block: Next up: CC(=O)c1cc(C(=O)N2c3ccccc3Sc3ccccc32)n2ccc3ccccc3c12
Result block: N

Query block: Let us now turn to COc1cc(-c2nn(C(C)(C)C)cc2-c2ccnc(NCCCNS(=O)(=O)c3ccccc3)n2)ccc1Cl
Result block: Y

Query block: Now consider CN1CCN(Cc2ccc(NC(=O)c3cncc(C#Cc4cnc5ccc(NCCCO)nn45)c3)cc2C(F)(F)F)CC1 and answer again.
Result block: Y

Query block: Again, but for Nc1nc(-c2cccc([N+](=O)[O-])c2)c(N=Nc2ccc(Br)cc2)s1
Result block: Y

Hello, the source for this data is PubChem BioAssay (NCI), in case you need it.
